Assay: Plasma pharmacokinetics of 17-AAG and 17-AG in the open-label dose escalating trial in MM patients
Settings: human, in vivo, 275 mg/m2, Clearance, 17-AAG 275 mg/m^2, mean ± SD
Protocol: The total number of PK samples collected was approximately 110 mL of whole blood (7-8 tablespoons). If a patient experienced a potentially drug-related SAE, additional PK samples were collected. […] The PK analysis was performed as follows. […] PK parameters were calculated on plasma concentration time data by non-compartmental analysis using Kinetica version 4.3 software (Innaphase, Champs sur Marne, France). […]
OUTCOME MEASURE: clearance (mL/min)
One number for each entry, in mL/min.

Output clearance of `C=CCNC1=C2C[C@@H](C)C[C@H](OC)[C@H](O)[C@@H](C)/C=C(\C)[C@H](OC(N)=O)[C@@H](OC)/C=C\C=C(/C)C(=O)NC(=CC1=O)C2=O`
661

----------
Assay: Plasma pharmacokinetics of 17-AAG and 17-AG in the open-label dose escalating trial in MM patients
Conditions: human, in vivo, distributive volume (Vss), range of cohort means, across dose administrations
OUTCOME MEASURE: Vd

Output Vd of `C=CCNC1=C2C[C@@H](C)C[C@H](OC)[C@H](O)[C@@H](C)/C=C(\C)[C@H](OC(N)=O)[C@@H](OC)/C=C\C=C(/C)C(=O)NC(=CC1=O)C2=O`
123 to 171 L

----------
Test: Plasma pharmacokinetics of 17-AAG and 17-AG in the open-label dose escalating trial in MM patients
Settings: human, in vivo, 220 mg/m2, Clearance, 17-AAG 220 mg/m^2, mean ± SD
OUTCOME MEASURE: clearance (mL/min)
One number for each entry, in mL/min.

Output clearance of `C=CCNC1=C2C[C@@H](C)C[C@H](OC)[C@H](O)[C@@H](C)/C=C(\C)[C@H](OC(N)=O)[C@@H](OC)/C=C\C=C(/C)C(=O)NC(=CC1=O)C2=O`
780

----------
Assay: Plasma pharmacokinetics of 17-AAG and 17-AG in the open-label dose escalating trial in MM patients
Details: human, in vivo, iv, 340 mg/m2
OUTCOME MEASURE: Cmax (ng/mL)
One number for each entry, in ng/mL.

Output Cmax of `C=CCNC1=C2C[C@@H](C)C[C@H](OC)[C@H](O)[C@@H](C)/C=C(\C)[C@H](OC(N)=O)[C@@H](OC)/C=C\C=C(/C)C(=O)NC(=CC1=O)C2=O`
9360

----------
Test: Plasma pharmacokinetics of 17-AAG and 17-AG in the open-label dose escalating trial in MM patients
Details: human, in vivo, iv, 275 mg/m2
OUTCOME MEASURE: Cmax (ng/mL)
One number for each entry, in ng/mL.

Output Cmax of `C=CCNC1=C2C[C@@H](C)C[C@H](OC)[C@H](O)[C@@H](C)/C=C(\C)[C@H](OC(N)=O)[C@@H](OC)/C=C\C=C(/C)C(=O)NC(=CC1=O)C2=O`
6820

----------
Assay: Plasma pharmacokinetics of 17-AAG and 17-AG in the open-label dose escalating trial in MM patients
Settings: human, in vivo, 275 mg/m2
OUTCOME MEASURE: AUC(0-t) (ng·h/mL)
Give bare numbers, in ng·h/mL.

Output AUC(0-t) of `C=CCNC1=C2C[C@@H](C)C[C@H](OC)[C@H](O)[C@@H](C)/C=C(\C)[C@H](OC(N)=O)[C@@H](OC)/C=C\C=C(/C)C(=O)NC(=CC1=O)C2=O`
13400

----------
Test: Plasma pharmacokinetics of 17-AAG and 17-AG in the open-label dose escalating trial in MM patients
Details: human, in vivo, 220 mg/m2
OUTCOME MEASURE: half-life (h)
Give bare numbers, in h.

Output half-life of `C=CCNC1=C2C[C@@H](C)C[C@H](OC)[C@H](O)[C@@H](C)/C=C(\C)[C@H](OC(N)=O)[C@@H](OC)/C=C\C=C(/C)C(=O)NC(=CC1=O)C2=O`
2.68

----------
Assay: Plasma pharmacokinetics of 17-AAG and 17-AG in the open-label dose escalating trial in MM patients
Conditions: human, in vivo, 340 mg/m2, Vss, 17-AAG 340 mg/m^2, mean ± SD
Procedure: The total number of PK samples collected was approximately 110 mL of whole blood (7-8 tablespoons). If a patient experienced a potentially drug-related SAE, additional PK samples were collected. […] The PK analysis was performed as follows. […] PK parameters were calculated on plasma concentration time data by non-compartmental analysis using Kinetica version 4.3 software (Innaphase, Champs sur Marne, France). […]
OUTCOME MEASURE: Vd (L)
Answers are plain numbers, in L.

Output Vd of `C=CCNC1=C2C[C@@H](C)C[C@H](OC)[C@H](O)[C@@H](C)/C=C(\C)[C@H](OC(N)=O)[C@@H](OC)/C=C\C=C(/C)C(=O)NC(=CC1=O)C2=O`
101

----------
Assay: Plasma pharmacokinetics of 17-AAG and 17-AG in the open-label dose escalating trial in MM patients
Conditions: human, plasma, intravenous
OUTCOME MEASURE: half-life

Output half-life of `CO[C@H]1/C=C\C=C(/C)C(=O)NC2=CC(=O)C(N)=C(C[C@@H](C)C[C@H](OC)[C@H](O)[C@@H](C)/C=C(\C)[C@@H]1OC(N)=O)C2=O`
4.6 to 5.4 h

----------
Assay: Plasma pharmacokinetics of 17-AAG and 17-AG in the open-label dose escalating trial in MM patients
Conditions: human, in vivo, 275 mg/m2, Vss, 17-AAG 275 mg/m^2, mean ± SD
OUTCOME MEASURE: Vd (L)
Give bare numbers, in L.

Output Vd of `C=CCNC1=C2C[C@@H](C)C[C@H](OC)[C@H](O)[C@@H](C)/C=C(\C)[C@H](OC(N)=O)[C@@H](OC)/C=C\C=C(/C)C(=O)NC(=CC1=O)C2=O`
123

----------
Test: Plasma pharmacokinetics of 17-AAG and 17-AG in the open-label dose escalating trial in MM patients
Settings: human, in vivo, iv, 220 mg/m2
OUTCOME MEASURE: Cmax (ng/mL)
Answers are plain numbers, in ng/mL.

Output Cmax of `C=CCNC1=C2C[C@@H](C)C[C@H](OC)[C@H](O)[C@@H](C)/C=C(\C)[C@H](OC(N)=O)[C@@H](OC)/C=C\C=C(/C)C(=O)NC(=CC1=O)C2=O`
4670

----------
Test: Plasma pharmacokinetics of 17-AAG and 17-AG in the open-label dose escalating trial in MM patients
Details: human, in vivo, 220 mg/m2
OUTCOME MEASURE: AUC(0-t) (ng·h/mL)
Give bare numbers, in ng·h/mL.

Output AUC(0-t) of C=CCNC1=C2C[C@@H](C)C[C@H](OC)[C@H](O)[C@@H](C)/C=C(\C)[C@H](OC(N)=O)[C@@H](OC)/C=C\C=C(/C)C(=O)NC(=CC1=O)C2=O [17-AAG, 17-Allylamino-17-demethoxygeldanamycin]
9160

----------
Assay: Plasma pharmacokinetics of 17-AAG and 17-AG in the open-label dose escalating trial in MM patients
Details: human, in vivo, 340 mg/m2, Clearance, 17-AAG 340 mg/m^2, mean ± SD
OUTCOME MEASURE: clearance

Output clearance of `C=CCNC1=C2C[C@@H](C)C[C@H](OC)[C@H](O)[C@@H](C)/C=C(\C)[C@H](OC(N)=O)[C@@H](OC)/C=C\C=C(/C)C(=O)NC(=CC1=O)C2=O`
595 mL/min

----------
Assay: Plasma pharmacokinetics of 17-AAG and 17-AG in the open-label dose escalating trial in MM patients
Details: human, in vivo
OUTCOME MEASURE: half-life

Output half-life of C=CCNC1=C2C[C@@H](C)C[C@H](OC)[C@H](O)[C@@H](C)/C=C(\C)[C@H](OC(N)=O)[C@@H](OC)/C=C\C=C(/C)C(=O)NC(=CC1=O)C2=O [17-AAG, 17-Allylamino-17-demethoxygeldanamycin]
2.19 to 3.68 h

----------
Experiment: Plasma pharmacokinetics of 17-AAG and 17-AG in the open-label dose escalating trial in MM patients
Conditions: human, in vivo, CL, present study, overall
OUTCOME MEASURE: clearance
Write the numeric value and append its unit.

Output clearance of C=CCNC1=C2C[C@@H](C)C[C@H](OC)[C@H](O)[C@@H](C)/C=C(\C)[C@H](OC(N)=O)[C@@H](OC)/C=C\C=C(/C)C(=O)NC(=CC1=O)C2=O [17-AAG, 17-Allylamino-17-demethoxygeldanamycin]
792 mL/min

----------
Test: Plasma pharmacokinetics of 17-AAG and 17-AG in the open-label dose escalating trial in MM patients
Conditions: human, in vivo, iv, 150 mg/m2
OUTCOME MEASURE: Cmax
Write the numeric value and append its unit.

Output Cmax of C=CCNC1=C2C[C@@H](C)C[C@H](OC)[C@H](O)[C@@H](C)/C=C(\C)[C@H](OC(N)=O)[C@@H](OC)/C=C\C=C(/C)C(=O)NC(=CC1=O)C2=O [17-AAG, 17-Allylamino-17-demethoxygeldanamycin]
2400 ng/mL
